Origin of the recorded values: the supplement of paper PMC13380429

tested on: HepG2; test: cell viability relative to DMSO; higher = less toxic; settings: 72 h; 1000 nM
Form field: cell viability (one value per entry).
Quantity measured: cell viability (%)

Molecule	Observed result
CC(C)(O)C(=O)Nc1ccc([N+](=O)[O-])c(C(F)(F)F)c1 [2-hydroxyflutamide]	98
CC(C)(C)NC(=O)[C@@H](c1cccnc1)N(C(=O)c1ccco1)c1ccc(C(C)(C)C)cc1	106
Nc1n[nH]c2nnc(-c3c(-c4ccccc4)nn4ccccc34)cc12	97.9
O=C(/C=C/c1cccc(S(=O)(=O)Nc2ccccc2)c1)NO	22.4
CC(C)(C)CC(C)(C)c1ccc(O)c(Cc2ccc(Cl)cc2Cl)c1	96.2
O=c1cc(N2CCNCC2)oc2c(-c3ccccc3)cccc12	101
CC(C)(C)c1nc(-c2cccc(NS(=O)(=O)c3c(F)cccc3F)c2F)c(-c2ccnc(N)n2)s1	65.9
COc1ccc(OC)c2c(=S)c3ccccc3[nH]c12	98.9
O=C(OCC(COC(=O)c1cccnc1)(COC(=O)c1cccnc1)COC(=O)c1cccnc1)c1cccnc1	98.2
